Data provenance is patent US20120321591A1.

Measured Target: T1, human angiopoietin-2 protein (human, UniProt O15123 19-496)
T1 construct: also called Ang-2; Ang2
T1 sequence (looked up): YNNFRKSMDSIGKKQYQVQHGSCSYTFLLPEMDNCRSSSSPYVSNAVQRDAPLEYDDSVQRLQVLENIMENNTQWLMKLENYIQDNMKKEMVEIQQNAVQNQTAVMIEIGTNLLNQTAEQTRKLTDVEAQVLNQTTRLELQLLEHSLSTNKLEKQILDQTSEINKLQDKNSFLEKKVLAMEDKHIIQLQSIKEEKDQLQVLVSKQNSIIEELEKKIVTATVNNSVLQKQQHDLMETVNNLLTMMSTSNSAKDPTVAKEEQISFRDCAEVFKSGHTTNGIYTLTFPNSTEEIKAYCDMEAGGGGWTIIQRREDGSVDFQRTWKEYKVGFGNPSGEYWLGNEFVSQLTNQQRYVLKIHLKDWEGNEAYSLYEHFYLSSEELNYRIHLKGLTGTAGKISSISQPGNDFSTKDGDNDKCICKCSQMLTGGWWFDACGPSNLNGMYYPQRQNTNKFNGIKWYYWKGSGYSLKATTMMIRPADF
Protocol Details: reverse competition ELISA presumed: Ang-2 binding to coated Tie-2-Fc; peptide alone
Where no end group is shown, it is not given here.
Value Type: pIC50
Bear in mind: pIC50 is minus log10 of a mol/L concentration; give just that figure.

| Binder | Value Type | Value Measured |
| --- | --- | --- |
| QXYQPLDELDKTLYDQFMLQQG (N-terminal acyl cap; C-terminal amino cap; Kac 2) [Compound 4022] | pIC50 | 7.84 |

Next:
Quick check: pIC50 of QKYQPLDELDKTLYDQFMLQQG-NH2 (also: N-terminal acyl cap) [Compound 4021] ? 7.44
